Target: Mannose-6-phosphate isomerase (Homo sapiens)
Experiment notes: MPI inhibition at elevated mannose 6-phosphate – biochemical, fluorescence intensity, high mannose 6-phosphate, primary screen (AID 1220)
Measurement conditions: recombinant PMI enzyme, coupled fluorescence intensity; at 20 µM; stronger effect = higher value
The campaign covered roughly 190,000 compounds. About 1,300 (0.68%) were called active. Many of the other results were omitted from the sample, so actives are more common in it than they were.
Measured attribute: inhibition (%)
// units = %; emit number, no label

Look over these answered cases.
CCc1ccc(S(=O)(=O)/N=C2\C=CC(=O)c3ccccc32)cc1	50.7
CCN1C(=O)C(C)S/C1=N\S(=O)(=O)c1ccc(Cl)s1 (stereo not drawn)	-0.5
O=C(N/C(=C\c1ccco1)C(=O)N1CCCC1)c1cccs1	8.5
CCCN(Cc1cc2ccc(C)cc2[nH]c1=O)C(=O)c1ccccn1	11
O=c1[nH]snc1N1CCOCC1	-7.2
CC1=C(C(=O)Nc2ccccc2)C(c2cccs2)NC(=O)N1 (stereo not drawn)	-0.7

Incoming: Data request, read-out inhibition, for COc1ccc(Cn2c(SCc3ccc(C)cc3)nc3cc(OC)c(OC)cc3c2=N)cc1Cl
Outgoing: 1.9

Incoming: Ok, now CCN1C(=O)C2C(c3cccc(F)c3)NC(CC)(C(=O)OC)C2C1=O (stereo not drawn)
Outgoing: 2.1

Incoming: Ok, now COCCNc1c(-c2ccc(OC)cc2)nc2ccc(Cl)cn12
Outgoing: -8.6
